Tested on: human KLF5 promoter
protocol summary: KLF5 promoter activity luciferase assay in DLD-1/pGL4.18hKLF5p cells
Type: cell-based
measurement context: Homo sapiens, DLD-1; 24 h treatment, FIG. 1B; read-out: IC50, human KLF5 promoter activity
Assign pIC50 to each entry below.
Answers are plain numbers, as −log10 of the molar value.

1. CS(=O)(=O)N1CCN(C(=O)CNC(=O)/C=C/c2cccc(Cl)c2)CC1 [Example 1] ... 7.38

Proceeding to the next compound to report its pIC50.
Enquiry: Give the measured pIC50 of CS(=O)(=O)N1CCN(C(=O)CNC(=O)/C=C/c2ccc(Cl)c(Cl)c2)CC1 [Example 9] .
Return: 8.36

====

System: SW-620 colorectal cancer cell line
protocol summary: MTT growth assay, SW-620
Type: cell-based
measurement context: Homo sapiens, Table 1
parameter: pEC50
Give bare numbers, as −log10 of the molar value.

1. CS(=O)(=O)N1CCN(C(=O)CNC(=O)/C=C/c2ccc(Cl)c(Cl)c2)CC1 ... 7.66

Proceeding to the next compound to report its pEC50.
Enquiry: Give the measured pEC50 of CN(C(=O)CNC(=O)/C=C/c1cccc(Cl)c1)C1CCS(=O)(=O)CC1 [ML264, reference compound] .
Return: 6.39

====

Test system: DLD-1 colon cancer cells
protocol summary: MTT viability assay, DLD-1
Format: cell-based
measurement context: Homo sapiens, Table 2, read-out: Approximate potency (EC50 · mol/L) (DLD1, MTT assay)
In plain terms, low EC50, meaning strictly below 20 nM, gives fulfilled, and everything else gives not fulfilled.

# example entries with known answers
1. CS(=O)(=O)N1CCN(C(=O)CNC(=O)/C=C/c2cc(Cl)cc(Cl)c2)CC1 ... not fulfilled
2. CS(=O)(=O)N1CCC(CNC(=O)CNC(=O)/C=C/c2cccc(Cl)c2)C1 (centres unmarked) ... fulfilled
3. CS(=O)(=O)N1CCN(C(=O)CNC(=O)/C=C/c2ccc(Cl)c(Cl)c2)CC1 ... fulfilled

Enquiry: Determine whether this molecule shows EC50 lower than 20 nM (ties excluded): CS(=O)(=O)N1CCN(C(=O)CNC(=O)/C=C/c2ccc(OC(F)(F)F)c(Cl)c2)CC1
Return: not fulfilled

====

Test system: human KLF5 promoter
protocol summary: KLF5 promoter activity luciferase assay in DLD-1/pGL4.18hKLF5p cells
Assay type: cell-based
measurement context: Homo sapiens, DLD-1; Table 1, comparison of ML264 and SR18662; read-out: luciferase IC50
parameter: IC50 (nM)
Answers are plain numbers, in nM.

Enquiry: Give the measured IC50 of CS(=O)(=O)N1CCN(C(=O)CNC(=O)/C=C/c2ccc(Cl)c(Cl)c2)CC1 .
Return: 4.4

====

Tested on: human KLF5 promoter
protocol summary: KLF5 promoter activity luciferase assay in DLD-1/pGL4.18hKLF5p cells
Format: cell-based
measurement context: Homo sapiens, DLD-1; Table 2; read-out: Approximate potency (EC50 · mol/L) (luciferase)
parameter: pEC50
Give bare numbers, as −log10 of the molar value.

Below are some molecules; for each one, tell me its pEC50.
1. O=C(/C=C/c1cccc(Cl)c1)NCC(=O)N1CCN(S(=O)(=O)C2CCCCC2)CC1
2. CS(=O)(=O)N1CCN(C(=O)CNC(=O)/C=C/c2cccc(Cl)c2)CC1

Return:
1: 5.89; 2: 7.38

Below are some molecules; for each one, tell me its pEC50.
1. CC(C)CS(=O)(=O)N1CCN(C(=O)CNC(=O)/C=C/c2cccc(Cl)c2)CC1
2. COc1ccc(/C=C/C(=O)NCC(=O)N2CCN(S(C)(=O)=O)CC2)cc1Cl
3. CS(=O)(=O)NCC1CCN(C(=O)CNC(=O)/C=C/c2cccc(Cl)c2)CC1

Return:
5.15
6.77
5.85

Below are some molecules; for each one, tell me its pEC50.
1. CS(=O)(=O)N1CCCN(C(=O)CNC(=O)/C=C/c2cccc(Cl)c2)CC1
2. CS(=O)(=O)N1CCN(C(=O)CNC(=O)/C=C/c2cccc(Br)c2)CC1
3. Cc1ccc(/C=C/C(=O)NCC(=O)N2CCN(S(C)(=O)=O)CC2)cc1Cl
4. CS(=O)(=O)N1CCN(C(=O)CNC(=O)/C=C/c2ccc(OC(F)(F)F)c(Cl)c2)CC1

Return:
1. 5.97
2. 7.06
3. 8.20
4. 5.10

Reference source: patent US12486227B2
